The origin of these recorded values is patent US20250353873A1.

Entries and their APOE RNA (% UTC) values follow.
Test system: human APOE RNA
experiment: Dose-dependent inhibition of human APOE RNA in HepG2 cells, electroporation, 24 hours (Example 6)
Format: cell-based
assay_conditions: 5 nM
Strand notation (5' to 3'): a small letter for the sugar, then the base; units joined by * are phosphorothioate-linked, units joined directly phosphodiester-linked; [ ] holds rarer units or linkages, { } end groups; capitals alone tell only the bases. [ms] = mesyl phosphoramidate linkage; e = 2'-O-(2-methoxyethyl) (MOE); k = constrained ethyl (cEt); [5mC] = 5-methylcytosine; d = 2'-deoxy (DNA)
readout_type: APOE RNA (% UTC)

substance="1736532 (e[5mC]*eT*eT*eG*kG*kTdG[ms]dA[ms]dA[ms]dT*d[5mC]*dT*dT*dT*dA[ms]dT*eT*eA*eA*eA; antisense) [Compound 1736532]" readout_type="APOE RNA (% UTC)" value_reported=81
substance="1736527: 6-10-4 MOE gapmer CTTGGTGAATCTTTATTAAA, linkages sssooozzsssssssssss (e[5mC]*eT*eT*eGeGeTdG[ms]dA[ms]dA*dT*d[5mC]*dT*dT*dT*dA*dT*eT*eA*eA*eA) [compound 1736527]" readout_type="APOE RNA (% UTC)" value_reported=104
substance="1736517 (e[5mC]*eTeTeG*kG*kT*dG[ms]dA[ms]dA[ms]dT*d[5mC]*dT*dT*dT*dA[ms]dT*eT*eA*eA*eA; antisense) [Compound 1736517]" readout_type="APOE RNA (% UTC)" value_reported=106
substance="1736514 (e[5mC]*eTeT*eG*kG*kT*dG[ms]dA[ms]dA[ms]dT*d[5mC]*dT*dT*dT*dA[ms]dT*eT*eA*eA*eA; antisense) [Compound 1736514]" readout_type="APOE RNA (% UTC)" value_reported=121
substance="1736524: 6-10-4 MOE gapmer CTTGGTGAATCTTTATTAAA, linkages sssooozzssssssssoss (e[5mC]*eT*eT*eGeGeTdG[ms]dA[ms]dA*dT*d[5mC]*dT*dT*dT*dA*dT*eTeA*eA*eA) [compound 1736524]" readout_type="APOE RNA (% UTC)" value_reported=97
